Value source: ChEMBL document CHEMBL1201862

- Tested on: SNB-19
- measurement.description: NCI tumour cell line growth inhibition, 48 h
Calls of active or inactive are those of the source. No stated cut-off is given here; in the data, active = GI50 up to about 1.1 µM and inactive = higher.
measured.attribute: GI50

Nc1c([N+](=O)[O-])cc2c3c(cccc13)CC2	86.3 µM (inactive)
COC(=O)C1(Cc2ccc3c(c2)CCC3)Cc2cc3c(cc2C1=O)CCC3 (stereo not given)	31.2 µM (inactive)
Clc1ccc2c(c1)CC1C[N+]3=C(CCCC3)C1=C2 (stereo not given)	48.3 µM (inactive)
CNc1nc(C(N)=O)c(N)s1	> 100 µM (inactive)
CCCCCCc1cc2cc(C(=O)Nc3nc(C45CC6CC(CC(C6)C4)C5)cs3)c(=O)oc2cc1O	12.3 µM (inactive)
COc1ccc(/N=N/C(=N/NC(=O)c2cc(Cl)ccc2C(=O)c2ccccc2)c2ccc(N(CCC#N)CCC#N)cc2C)cc1	25.9 µM (inactive)
CC[C@@]12C=CC(=S)N(CCSc3ccccc3)[C@@H]1c1c(n(S(=O)(=O)c3ccc(OC)cc3)c3ccccc13)CC2	> 100 µM (inactive)
CCN(CC)CCOc1ccc(N2C(=O)c3cccc4cc([N+](=O)[O-])cc(c34)C2=O)cc1	12.8 µM (inactive)
CSc1nc2nc(C)c(C)nc2c(=O)[nH]1	> 100 µM (inactive)

Input line: Record request: GI50 value, item "C=C1Oc2nc3ccccc3c(=O)n2C1(C)C"
Output line: > 100 µM (inactive)

====

- Test system: HCC 2998
- measurement.description: NCI tumour cell line growth inhibition, 48 h
The source made the active and inactive calls. Rule as the data show it: active = GI50 up to about 1.1 µM and inactive = higher.
Allowed answers: active, inactive

CSC(=N)N1N=C2/C(=C/c3ccccc3)CCC[C@H]2[C@H]1c1ccccc1	inactive
Cc1nc2ccc(S(=O)(=O)Nc3nccs3)cc2c(=O)n1NS(=O)(=O)c1nccs1	inactive
CN(C)c1ccc(C2CC(=O)CC(c3ccc(N(C)C)cc3)C23C(=O)NC(=S)NC3=O)cc1 (centres undefined)	inactive

Moving on to the next compound.
Input line: What outcome does the record of this test show for "CC[C@H]1C=CCC[C@@]2(C[C@@H]3CC[C@@H]4[C@H](C(=O)OCCCCCCCCCCCCCCCC(=O)N(CCCN)CCCCN)[C@]5(CCC[C@@H](C)O5)NC(=[N+]34)N2)O1" ?
Output line: active

====

- Test system: CAKI-1
- measurement.description: NCI tumour cell line growth inhibition, 48 h
Activity calls are given as the source filed them. Cut-off read from the data, not from the text of the source: active = GI50 up to about 1.1 µM and inactive = higher.
Give measured GI50 for each item. Keep answers brief.

Completed entries (count: 4):
CC(C)(O)C1CC[C@]2(C)CC[C@]3(C)[C@H](CC[C@@H]4[C@@]5(C)CC[C@H](O)C(C)(C)[C@@H]5CC[C@]43C)[C@@H]12 (stereo not given in full)	22.1 µM (inactive)
COC(=O)c1ccc(NC(=O)c2cc(OC)c(OC)c(OC)c2)cc1	2.16 µM (inactive)
O=C(CCc1cc(-c2ccccc2)nc(S)n1)N(Cc1ccccc1)Cc1ccccc1	> 100 µM (inactive)
BrP(NC1CCCCCC1)(c1ccccc1)(c1ccccc1)c1ccccc1	3.98 µM (inactive)

Input line: Record request: GI50 value, item "Nc1nc(Cl)cc(NCCCCCCCCCCNc2cc(Cl)nc(N)n2)n1"
Output line: 25.6 µM (inactive)

====

- Test system: SF-295
- measurement.description: NCI tumour cell line growth inhibition, 48 h
The source made the active and inactive calls. Rule as the data show it: active = GI50 up to about 1.1 µM and inactive = higher.
Give measured GI50 for each item. Keep answers brief.

Cc1ccc(-c2cc(-c3ccc(Cl)cc3)nc(/N=C3\C(=O)N(CN4CCOCC4)c4ccc(Cl)cc43)n2)cc1	35.7 µM (inactive)
c1ccc2c(c1)nnn2CNc1ccc(N2CCOCC2)cc1	> 100 µM (inactive)
CCN(CC)CCOc1ccc(N2C(=O)c3cccc4cc([N+](=O)[O-])cc(c34)C2=O)cc1	6.55 µM (inactive)
COc1ccc([C@@]23CCC(=O)C[C@@H]2N(C)CC3)cc1OC	> 100 µM (inactive)
C=CC(=O)C#CC#CC/C=C\CCCCCCC	> 20.6 µM (inactive)
CCOC(=O)CC1COc2ccc3c(c21)OCO3 (stereo unspecified)	> 100 µM (inactive)

For every item below, please supply its GI50.
1. CN(C)C(c1ccccc1)C1COC2Cc3ccccc3C1O2 (stereo unspecified)
2. O=C(O)CCCc1nc2c(n1-c1ccccc1)C(=O)c1ccccc1C2=O
3. COP(C)(=O)/C(Cc1ccccc1)=N\O (stereo unspecified)

Output line:
1: > 100 µM (inactive); 2: 60 µM (inactive); 3: > 100 µM (inactive)

For every item below, please supply its GI50.
1. COC(=O)c1cc2c(s1)C(=O)c1ccccc1-2
2. CCOC(=O)c1ccc(C(=O)n2ccnc2)[nH]1

Output line:
1: > 100 µM (inactive); 2: > 100 µM (inactive)
